# System: large crabgrass (Digitaria sanguinalis)
# Test name: Test B pre-/postemergence plant response
# Assay type: in vivo
# Run parameters: Preemergence; 8 g ai/ha; scale 0 to 100
Catalogue of compounds with associated Crabgrass, Large plant response rating

# Compound, Crabgrass, Large plant response rating
measured = [
    ("Cc1cc(-c2ccc(Cl)cc2)nn1-c1c(OS(=O)(=O)c2ccc(Cl)s2)cnn(C)c1=O [Compound 55]", 20),
    ("CCCc1cc(-c2ccc(Cl)cc2)nn1-c1c(O)cnn(C)c1=O [Compound 76]", 0),
    ("Cc1cc(-c2ccc(Cl)cc2)nn1-c1c(OC(=O)c2cccs2)cnn(C)c1=O [Compound 52]", 0),
    ("Cc1cc(-c2ccc(Cl)cc2)nn1-c1c(OS(=O)(=O)c2ccccc2)cnn(C)c1=O [Compound 35]", 90),
]

[ask] Reported Crabgrass, Large plant response rating for Cc1cc(-c2ccc(Cl)cc2)nn1-c1c(OC(=O)c2cccc(Cl)c2)cnn(C)c1=O [Compound 32] : what is it?
[reply] 20

[ask] Reported Crabgrass, Large plant response rating for CCOC(=O)Oc1cnn(C)c(=O)c1-n1nc(-c2ccc(Cl)cc2)cc1C [Compound 53] : what is it?
[reply] 0

[ask] Reported Crabgrass, Large plant response rating for Cc1cc(-c2ccc(Cl)cc2)nn1-c1c(OC(=O)Oc2ccccc2)cnn(C)c1=O [Compound 54] : what is it?
[reply] 0

###

# Test system: giant foxtail (Setaria faberi)
# Test name: Test A pre-/postemergence plant response
# Assay type: in vivo
# Run parameters: Preemergence, 125 g ai/ha; 0 to 100 scale (0 no effect, 100 complete control)
Catalogue of compounds with associated Plant response rating, Foxtail, Giant
No unit in the answer, only the number.

# Compound, Property name, Measured number
rows = [
    ("CCc1cc(-c2ccc(C(F)(F)F)cc2)nn1-c1c(OC(=O)OC(C)C)cnn(C)c1=O [Compound 12]", "Plant response rating, Foxtail, Giant", 100),
    ("Cc1cc(-c2ccc(Br)cc2)nn1-c1c(OC(=O)C2CC2)cnn(C)c1=O [Compound 5]", "Plant response rating, Foxtail, Giant", 100),
    ("CC(C)Cc1cc(-c2ccc(Cl)cc2)nn1-c1c(O)cnn(C)c1=O [Compound 92]", "Plant response rating, Foxtail, Giant", 50),
    ("Cc1ccc(-c2ccc(Cl)cc2)cc1-c1c(O)cnn(C)c1=O [Compound 46]", "Plant response rating, Foxtail, Giant", 100),
    ("Cc1nn(C)c(=O)c(-n2nc(-c3ccc(Cl)cc3)cc2C)c1O [Compound 15]", "Plant response rating, Foxtail, Giant", 90),
    ("CCc1c(C)c(-c2ccc(Br)cc2)nn1-c1c(O)cnn(C)c1=O [Compound 83]", "Plant response rating, Foxtail, Giant", 100),
    ("Cc1cc(-c2ccc(C(F)(F)F)cc2)nn1-c1c(O)c(C(C)C)nn(C)c1=O [Compound 27]", "Plant response rating, Foxtail, Giant", 80),
]

The record that follows has no Plant response rating, Foxtail, Giant shown yet.
[ask] Reported Plant response rating, Foxtail, Giant for CCc1cc(-c2ccc(Cl)cc2)nn1-c1c(O)cnn(C)c1=O [Compound 21] : what is it?
[reply] 100

###

# System: morningglory (Ipomoea coccinea)
# Test name: Test B pre-/postemergence plant response
# Assay type: in vivo
# Run parameters: Preemergence, 16 g ai/ha; scale 0 to 100 (0 no effect, 100 complete control)
Property name: Plant response rating, Morningglory
No unit in the answer, only the number.

# Input smiles, Property name, Measured number
records = [
    ("Cc1cc(-c2ccc(Cl)cc2)nn1-c1c(OC(=O)CC(C)C)cnn(C)c1=O", "Plant response rating, Morningglory", 0),
    ("Cc1cc(-c2ccc(Cl)cc2)nn1-c1c(OS(=O)(=O)C(C)C)cnn(C)c1=O", "Plant response rating, Morningglory", 0),
    ("Cc1ccc(-c2ccc(Cl)cc2)cc1-c1c(O)cnn(C)c1=O", "Plant response rating, Morningglory", 0),
    ("CCc1cc(-c2ccc(Cl)cc2)nn1-c1c(O)cnn(C)c1=O", "Plant response rating, Morningglory", 0),
]

[ask] Kindly state the measured Plant response rating, Morningglory obtained for `CCCc1cc(-c2ccc(Cl)cc2)nn1-c1c(O)cnn(C)c1=O` with morningglory (Ipomoea coccinea).
[reply] 0

[ask] Kindly state the measured Plant response rating, Morningglory obtained for `Cc1cc(-c2ccc(Cl)cc2)nn1-c1c(OC(=O)c2ccccc2Cl)cnn(C)c1=O` with morningglory (Ipomoea coccinea).
[reply] 0

[ask] Kindly state the measured Plant response rating, Morningglory obtained for `Cc1cc(-c2ccc(C(F)(F)F)c(F)c2)nn1-c1c(O)c(C(F)(F)F)nn(C)c1=O` with morningglory (Ipomoea coccinea).
[reply] 0
